Origin of values: ChEMBL document CHEMBL4261582

IC50: recorded values
Target Under Test: Dihydroorotate dehydrogenase (fumarate) (Leishmania major, UniProt Q4QEW7)
Assay Procedure: Inhibition of recombinant oligo-histidine-tagged Leishmania major DHODH expressed in Escherichia coli BL21(DE3) cells using DHO as substrate measured after 60 secs
Condition Info: read-out: IC50
Observable: IC50 (µM)

Compound	Measured Value
C/C=C(/C)C(=O)O[C@H]1[C@H](OC(C)=O)[C@]2(CO)[C@H](O)C[C@]3(C)C(=CC[C@@H]4[C@@]5(C)CC[C@H](O[C@@H]6O[C@H](C(=O)O)[C@@H](O[C@@H]7O[C@H](CO)[C@@H](O)[C@H](O)[C@H]7O)[C@H](O)[C@H]6O[C@@H]6O[C@H](CO)[C@@H](O)[C@H](O)[C@H]6O)[C@](C)(CO)[C@@H]5CC[C@]43C)[C@@H]2CC1(C)C [ESCIN IB]	478
C=C1C(=O)O[C@@H]2/C=C(/C)C3=CC(=O)[C@@](C)(C[C@@H](OC(=O)/C(C)=C/C)[C@@H]12)O3 [ATRIPLICIOLIDTIGLATE]	872
CN1[C@@H]2C[C@H](OC(=O)[C@H](CO)c3ccccc3)C[C@H]1[C@@H]1O[C@@H]12	795
CC[C@@H](C)[C@@]1(O)O[C@H]2C[C@@]3(C)OC(=CC3=O)/C(COC(C)=O)=C\[C@H]3OC(=O)[C@@]1(C)[C@H]23	1200
C=C(C)C(=O)O[C@H]1C[C@@]2(C)OC(=CC2=O)/C(CO)=C\[C@H]2OC(=O)C(=C)[C@H]12 [GOIAZENSOLIDE]	156
C=C1C(=O)O[C@@H]2[C@H]3C(C)=CC(=O)C3=C(C)C[C@@H](OC(=O)[C@]3(C)O[C@@H]3C)[C@@H]12	585
C=C1C(=O)O[C@@H]2/C=C(\C)CC/C=C(/C=O)[C@@H](O)[C@@H](OC(=O)/C(C)=C\C)[C@@H]12	644

* * *

Target Under Test: Dihydroorotate dehydrogenase (fumarate) (Leishmania major) (UniProt Q4QEW7)
Assay Procedure: Binding affinity to Leishmania major DHODH assessed as change in melting temperature at 1000 uM by SYPRO orange dye-based differential scanning fluorimetry

Molecule	Target Under Test	ΔTm / °C
CC[C@@H](C)[C@@]1(O)O[C@H]2C[C@@]3(C)OC(=CC3=O)/C(CO)=C\[C@H]3OC(=O)[C@@]1(C)[C@H]23	Dihydroorotate dehydrogenase (fumarate) (Leishmania major) (UniProt Q4QEW7)	-1.83
C=C1C(=O)O[C@@H]2/C=C(\C)CC/C=C(/C=O)[C@@H](O)[C@@H](OC(=O)/C(C)=C\C)[C@@H]12	Dihydroorotate dehydrogenase (fumarate) (Leishmania major) (UniProt Q4QEW7)	-0.07
CC[C@@H](C)[C@@]1(O)O[C@H]2C[C@@]3(C)OC(=CC3=O)/C(COC(C)=O)=C\[C@H]3OC(=O)[C@@]1(C)[C@H]23	Dihydroorotate dehydrogenase (fumarate) (Leishmania major) (UniProt Q4QEW7)	-1.39
C=C(C)C(=O)O[C@H]1C[C@@]2(C)OC(=CC2=O)/C(CO)=C\[C@H]2OC(=O)C(=C)[C@H]12 [GOIAZENSOLIDE]	Dihydroorotate dehydrogenase (fumarate) (Leishmania major) (UniProt Q4QEW7)	-6.51
C=C1C(=O)O[C@@H]2C[C@H](C)[C@@]3(O)C[C@H](O)[C@@](C)(C[C@@H](OC(=O)C(C)C)[C@@H]12)O3 [TAGITININ A]	Dihydroorotate dehydrogenase (fumarate) (Leishmania major) (UniProt Q4QEW7)	-0.19
C=C1C(=O)O[C@@H]2/C=C(/C)C3=CC(=O)[C@@](C)(C[C@@H](OC(=O)/C(C)=C/C)[C@@H]12)O3 [ATRIPLICIOLIDTIGLATE]	Dihydroorotate dehydrogenase (fumarate) (Leishmania major) (UniProt Q4QEW7)	-5.97

* * *

IC50: recorded values
Target Under Test: Dihydroorotate dehydrogenase (fumarate) (Leishmania major, UniProt Q4QEW7)
Assay Procedure: Inhibition of recombinant oligo-histidine-tagged Leishmania major DHODH expressed in Escherichia coli BL21(DE3) cells using DHO as substrate measured after 60 secs
Condition Info: read-out: IC50
Observable: IC50 (µM)

Molecule Smiles	Measured Value
O=C(O)/C=C/c1ccc(O)c(O)c1	1750
O=c1ccc2ccc(O)cc2o1	467
C=C[C@]1(C)C=C2CC[C@H]3[C@@](C)(CCC[C@]3(C)C(=O)O)[C@@H]2CC1	1320
C/C=C(/C)[C@@]1(O)O[C@H]2C[C@@]3(C)OC(=CC3=O)/C(C)=C\[C@H]3OC(=O)[C@@]1(C)[C@H]23	346
COc1cc(O)c2c(=O)cc(-c3ccc(OC)c(OC)c3)oc2c1	217

* * *

Target Under Test: Dihydroorotate dehydrogenase (fumarate) (Leishmania major)
Assay Procedure: Binding affinity to Leishmania major DHODH assessed as change in melting temperature at 500 uM by SYPRO orange dye-based differential scanning fluorimetry
ΔTm: recorded values
Observable: ΔTm (°C)

Molecule	Measured Value
C=C1C(=O)O[C@@H]2C[C@H](C)[C@@]3(O)C[C@H](O)[C@@](C)(C[C@@H](OC(=O)C(C)C)[C@@H]12)O3 [TAGITININ A]	-0.06
CC[C@@H](C)[C@@]1(O)O[C@H]2C[C@@]3(C)OC(=CC3=O)/C(CO)=C\[C@H]3OC(=O)[C@@]1(C)[C@H]23	-0.96
C[C@@H]1CC[C@H]2[C@@H](C)C(=O)O[C@@H]3O[C@@]4(C)CC[C@@H]1[C@]32OO4 [ARTEMISININ]	-0.22
C=C1C(=O)O[C@@H]2[C@H]3C(C)=CC(=O)C3=C(C)C[C@@H](OC(=O)[C@]3(C)O[C@@H]3C)[C@@H]12	-0.75
C=C(C)C(=O)O[C@H]1C[C@@]2(C)OC(=CC2=O)/C(CO)=C\[C@H]2OC(=O)C(=C)[C@H]12 [GOIAZENSOLIDE]	-4.19
C=C1C(=O)O[C@@H]2/C=C(/C)C3=CC(=O)[C@@](C)(C[C@@H](OC(=O)/C(C)=C/C)[C@@H]12)O3 [ATRIPLICIOLIDTIGLATE]	-2.52
CC(=O)OCC1=C2[C@@H](OC(C)=O)C[C@@](C)(OC(C)=O)C(=O)CC[C@@]3(C)O[C@@H]3[C@H]2OC1=O	-0.47
C=C1C(=O)O[C@@H]2/C=C(\C)CC/C=C(/C=O)[C@@H](O)[C@@H](OC(=O)/C(C)=C\C)[C@@H]12	-0.17
C=C(C)C(=O)O[C@H]1C[C@@]2(C)OC(=CC2=O)[C@@H](C)C[C@H]2OC(=O)C(=C)[C@H]12	-0.27
O=C(O)c1cc(=O)[nH]c(=O)[nH]1	1.43
CC[C@@H](C)[C@@]1(O)O[C@H]2C[C@@]3(C)OC(=CC3=O)/C(COC(C)=O)=C\[C@H]3OC(=O)[C@@]1(C)[C@H]23	-1.8

* * *

Test system: Leishmania amazonensis
Assay Procedure: Antileishmanial activity against Leishmania amazonensis MHOM/77BR/LTB0016 promastigotes after 72 hrs by MTT assay
Type: functional, organism-based
Condition Info: MHOM/77BR/LTB0016, 72 h
IC50: recorded values

Molecule	Target Under Test	Readout Unit	IC50
O=C(O)/C=C/c1ccc(O)c(O)c1	Leishmania amazonensis	µM	5.2
COc1cc(/C=C/C(=O)O)ccc1O [FERULATE]	Leishmania amazonensis	µM	1.7

* * *

Target Under Test: Dihydroorotate dehydrogenase (fumarate) (Leishmania major)
Sequence (whole entry): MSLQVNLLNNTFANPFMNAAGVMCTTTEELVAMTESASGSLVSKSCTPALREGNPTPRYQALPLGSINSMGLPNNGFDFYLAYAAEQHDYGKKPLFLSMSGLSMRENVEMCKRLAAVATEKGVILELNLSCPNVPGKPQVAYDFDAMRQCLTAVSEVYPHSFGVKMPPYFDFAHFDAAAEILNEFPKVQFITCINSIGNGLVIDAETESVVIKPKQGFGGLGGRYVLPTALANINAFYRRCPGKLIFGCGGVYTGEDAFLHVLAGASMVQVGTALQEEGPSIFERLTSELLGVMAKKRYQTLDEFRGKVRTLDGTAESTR
Assay Procedure: Binding affinity to Leishmania major DHODH assessed as change in melting temperature at 1000 uM by differential scanning fluorimetry-based ThermoFMN assay

Molecule	ΔTm, °C
O=C(O)c1cc(=O)[nH]c(=O)[nH]1	6.12
C=C1C(=O)O[C@@H]2/C=C(/C)C3=CC(=O)[C@@](C)(C[C@@H](OC(=O)/C(C)=C/C)[C@@H]12)O3 [ATRIPLICIOLIDTIGLATE]	-1.21
CC[C@@H](C)[C@@]1(O)O[C@H]2C[C@@]3(C)OC(=CC3=O)/C(COC(C)=O)=C\[C@H]3OC(=O)[C@@]1(C)[C@H]23	-0.76
C=C1C(=O)O[C@@H]2/C=C(\C)CC/C=C(/C=O)[C@@H](O)[C@@H](OC(=O)/C(C)=C\C)[C@@H]12	-1.48
